These data points were gathered from BindingDB's records for doi:10.1016/s0960-894x(03)00589-4.

- method: Inhibitory concentration required against protein phosphatase 1 using pNPP assay
Reported IC50 is given for each of the following compounds.
API: value field is a number in µM; no unit string.

smiles_structure=CO[C@@H](Cc1ccccc1)[C@@H](C)/C=C(C)/C=C/[C@H](NC(C)=O)[C@H](C)C(=O)N[C@H](CCC(=O)N(C)CC(=O)N[C@H](C)C(=O)O)C(=O)O reported_property=IC50 value_units=µM observed_result=400
smiles_structure=CO[C@@H](Cc1ccccc1)[C@@H](C)/C=C(C)/C=C/[C@H](NC(C)=O)[C@H](C)C(=O)N[C@H](CCC(=O)N(C)CC(=O)N[C@H](C)C(=O)N[C@@H](CC(C)C)C(=O)O)C(=O)O reported_property=IC50 value_units=µM observed_result=230

Task: Entry under review: C=C(C(=O)N[C@H](C)C(=O)N[C@@H](CC(C)C)C(=O)O)N(C)C(=O)CC[C@@H](NC(=O)[C@@H](C)[C@H](/C=C/C(C)=C/[C@H](C)[C@H](Cc1ccccc1)OC)NC(C)=O)C(=O)O . Reported IC50?
Output: 75
